Tested on: lysogenic bacterium E. coli W1709 (λ)
Test: Prophage induction of lysogenic bacterium (ILB activity)
Format: cell-based
Conditions: t/c ratio of plaque counts greater than 3.0
Method: The activity of prophage induction of lysogenic bacterium E. coli W1709 (λ) was determined according to the method disclosed by Lein et al. in Nature 196: 783-784 (1962). The plaque count was made on the agar plate containing test compound (t) and control plate (c). A t/c ratio of the plaque counts of greater than 3.0 was defined to be a significant level and lysogenic induction activity (ILB activity) was expressed by the minimum inducible concentration of the test compound.
Could you mark each record y if its ILB activity (minimum inducible concentration) falls strictly under 0.2 µg/mL, and n if it equals or exceeds it?

# count of solved cases: 6
Criterion: ILB activity (minimum inducible concentration) strictly below 0.2 µg/mL. Is it met by CNCCCNC(=O)CC(N)CCCNC(=O)c1csc(-c2csc(C(O)C(NC(=O)C(NC(=O)CC(O)C(C)NC(=O)C(NC(=O)c3nc(C(CC(N)=O)NCC(N)C(N)=O)nc(N)c3C)C(OC3OC(CO)C(O)C(O)C3OC3OC(CO)C(O)C(OC(N)=O)C3O)c3c[nH]cn3)C(C)O)OC3OC(C)C(N)C(O)C3O)n2)n1 (stereo not shown) [Tallysomycin S11a] ?
y

Criterion: ILB activity (minimum inducible concentration) strictly below 0.2 µg/mL. Is it met by Cc1c(N)nc(C(CC(N)=O)NCC(N)C(N)=O)nc1C(=O)NC(C(=O)NC(C)C(O)CC(=O)NC(C(=O)NC(OC1OC(C)C(N)C(O)C1O)C(O)c1nc(-c2nc(C(=O)NCCNCC(C)O)cs2)cs1)C(C)O)C(OC1OC(CO)C(O)C(O)C1OC1OC(CO)C(O)C(OC(N)=O)C1O)c1c[nH]cn1 (stereo not shown) [Tallysomycin S5b] ?
y

Criterion: ILB activity (minimum inducible concentration) strictly below 0.2 µg/mL. Is it met by Cc1c(N)nc(C(CC(N)=O)NCC(N)C(N)=O)nc1C(=O)NC(C(=O)NC(C)C(O)CC(=O)NC(C(=O)NC(OC1OC(C)C(N)C(O)C1O)C(O)c1nc(-c2nc(C(=O)NCCCN(CCO)CCO)cs2)cs1)C(C)O)C(OC1OC(CO)C(O)C(O)C1OC1OC(CO)C(O)C(OC(N)=O)C1O)c1c[nH]cn1 (stereo not shown) [Tallysomycin S8b] ?
y

Criterion: ILB activity (minimum inducible concentration) strictly below 0.2 µg/mL. Is it met by Cc1c(N)nc([C@H](CC(N)=O)NC[C@H](N)C(N)=O)nc1C(=O)N[C@H](C(=O)N[C@H](C)[C@@H](O)CC(=O)N[C@H](C(=O)NC(O[C@@H]1O[C@@H](C)[C@@H](N)[C@@H](O)[C@H]1O)C(O)c1nc(-c2nc(C(=O)NCCCC(N)CC(=O)NCCCNCCCCN)cs2)cs1)[C@@H](C)O)[C@H](O[C@@H]1O[C@@H](CO)[C@@H](O)[C@H](O)[C@@H]1O[C@H]1O[C@H](CO)[C@@H](O)[C@H](OC(N)=O)[C@@H]1O)c1c[nH]cn1 (stereo partly shown) [Tallysomycin A, reference compound] ?
y

Criterion: ILB activity (minimum inducible concentration) strictly below 0.2 µg/mL. Is it met by Cc1c(N)nc(C(CC(N)=O)NCC(N)C(N)=O)nc1C(=O)NC(C(=O)NC(C)C(O)CC(=O)NC(C(=O)NC(OC1OC(C)C(N)C(O)C1O)C(O)c1nc(-c2nc(C(=O)NCCCC(N)CC(=O)NCCCN(CCO)CCO)cs2)cs1)C(C)O)C(OC1OC(CO)C(O)C(O)C1OC1OC(CO)C(O)C(OC(N)=O)C1O)c1c[nH]cn1 (stereo not shown) [Tallysomycin S8a] ?
y

Criterion: ILB activity (minimum inducible concentration) strictly below 0.2 µg/mL. Is it met by Cc1c(N)nc(C(CC(N)=O)NCC(N)C(N)=O)nc1C(=O)NC(C(=O)NC(C)C(O)CC(=O)NC(C(=O)NC(OC1OC(C)C(N)C(O)C1O)C(O)c1nc(-c2nc(C(=O)NCCCN(C)C)cs2)cs1)C(C)O)C(OC1OC(CO)C(O)C(O)C1OC1OC(CO)C(O)C(OC(N)=O)C1O)c1c[nH]cn1 (stereo not shown) [Tallysomycin S7b] ?
y

More entries:
Criterion: ILB activity (minimum inducible concentration) strictly below 0.2 µg/mL. Is it met by Cc1c(N)nc(C(CC(N)=O)NCC(N)C(N)=O)nc1C(=O)NC(C(=O)NC(C)C(O)CC(=O)NC(C(=O)NC(OC1OC(C)C(N)C(O)C1O)C(O)c1nc(-c2nc(C(=O)NCCCC(N)CC(=O)NCCCN)cs2)cs1)C(C)O)C(OC1OC(CO)C(O)C(O)C1OC1OC(CO)C(O)C(OC(N)=O)C1O)c1c[nH]cn1 (stereo not shown) [Tallysomycin S1a] ?
y

Criterion: ILB activity (minimum inducible concentration) strictly below 0.2 µg/mL. Is it met by Cc1c(N)nc(C(CC(N)=O)NCC(N)C(N)=O)nc1C(=O)NC(C(=O)NC(C)C(O)CC(=O)NC(C(=O)NC(OC1OC(C)C(N)C(O)C1O)C(O)c1nc(-c2nc(C(=O)NCCCN)cs2)cs1)C(C)O)C(OC1OC(CO)C(O)C(O)C1OC1OC(CO)C(O)C(OC(N)=O)C1O)c1c[nH]cn1 (stereo not shown) [Tallysomycin S1b] ?
n

Criterion: ILB activity (minimum inducible concentration) strictly below 0.2 µg/mL. Is it met by Cc1c(N)nc(C(CC(N)=O)NCC(N)C(N)=O)nc1C(=O)NC(C(=O)NC(C)C(O)CC(=O)NC(C(=O)NC(OC1OC(C)C(N)C(O)C1O)C(O)c1nc(-c2nc(C(=O)NCCCC(N)CC(=O)NCCCNCCO)cs2)cs1)C(C)O)C(OC1OC(CO)C(O)C(O)C1OC1OC(CO)C(O)C(OC(N)=O)C1O)c1c[nH]cn1 (stereo not shown) [Tallysomycin S6a] ?
y

Criterion: ILB activity (minimum inducible concentration) strictly below 0.2 µg/mL. Is it met by Cc1c(N)nc(C(CC(N)=O)NCC(N)C(N)=O)nc1C(=O)NC(C(=O)NC(C)C(O)CC(=O)NC(C(=O)NC(OC1OC(C)C(N)C(O)C1O)C(O)c1nc(-c2nc(C(=O)NCCCC(N)CC(=O)NCCCNC(C)c3ccccc3)cs2)cs1)C(C)O)C(OC1OC(CO)C(O)C(O)C1OC1OC(CO)C(O)C(OC(N)=O)C1O)c1c[nH]cn1 (stereo not shown) [Tallysomycin S14a] ?
y

Criterion: ILB activity (minimum inducible concentration) strictly below 0.2 µg/mL. Is it met by Cc1c(N)nc(C(CC(N)=O)NCC(N)C(N)=O)nc1C(=O)NC(C(=O)NC(C)C(O)CC(=O)NC(C(=O)NC(OC1OC(C)C(N)C(O)C1O)C(O)c1nc(-c2nc(C(=O)NCCNCCO)cs2)cs1)C(C)O)C(OC1OC(CO)C(O)C(O)C1OC1OC(CO)C(O)C(OC(N)=O)C1O)c1c[nH]cn1 (stereo not shown) [Tallysomycin S9b] ?
y

Criterion: ILB activity (minimum inducible concentration) strictly below 0.2 µg/mL. Is it met by Cc1c(N)nc(C(CC(N)=O)NCC(N)C(N)=O)nc1C(=O)NC(C(=O)NC(C)C(O)CC(=O)NC(C(=O)NC(OC1OC(C)C(N)C(O)C1O)C(O)c1nc(-c2nc(C(=O)NCCC[S+](C)C)cs2)cs1)C(C)O)C(OC1OC(CO)C(O)C(O)C1OC1OC(CO)C(O)C(OC(N)=O)C1O)c1cnc[nH]1.Cl.Cl.Cl.[Cl-] (stereo not shown) [Tallysomycin S2b] ?
n

Criterion: ILB activity (minimum inducible concentration) strictly below 0.2 µg/mL. Is it met by Cc1c(N)nc(C(CC(N)=O)NCC(N)C(N)=O)nc1C(=O)NC(C(=O)NC(C)C(O)CC(=O)NC(C(=O)NC(OC1OC(C)C(N)C(O)C1O)C(O)c1nc(-c2nc(C(=O)NCCCC(N)CC(=O)NCCCCN)cs2)cs1)C(C)O)C(OC1OC(CO)C(O)C(O)C1OC1OC(CO)C(O)C(OC(N)=O)C1O)c1c[nH]cn1 (stereo not shown) [Tallysomycin S10a] ?
y
